Ref: PubChem BioAssay (NCI)

- Test system: PC-3 prostate
- test summary: NCI-60 one-dose screen, 48 h (100 = growth as untreated, 0 = no growth, -100 = all killed)
- run parameters: 10 µM unless noted
Compounds without any hit were thinned out: in the full panel of roughly 83,000, 20% have a hit.
measurement type: growth (%)

[
  {
    "compound": "CCCCc1c(Nn2cnnn2)no[n+]1[O-]",
    "u": "%",
    "endpoint result": 58.1
  },
  {
    "compound": "O=C(CSc1nc2ccccc2c(=O)[nH]1)NCCN1CCCCC1",
    "u": "%",
    "endpoint result": 91.2
  },
  {
    "compound": "CSc1ccccc1NC(=O)c1ccc2nn(/C(C#N)=C/c3ccccn3)nc2c1",
    "u": "%",
    "endpoint result": -57.7
  },
  {
    "compound": "COc1ccc2[nH]c(O)c(N=NC(=O)Cn3c(-c4ccccc4)nc4cc(C)ccc43)c2c1",
    "u": "%",
    "endpoint result": 21.5
  },
  {
    "compound": "O=C(COc1ccc(NC(=O)Nc2ccc(Cl)c(Cl)c2)cc1)N=Nc1c(O)[nH]c2ccc(Cl)cc12",
    "u": "%",
    "endpoint result": -2.39
  },
  {
    "compound": "Cc1ccc(C2=NN(c3nc(-c4cc5ccccc5oc4=O)cs3)C(c3ccc(C)cc3)C2)cc1 (centres undefined)",
    "u": "%",
    "endpoint result": 99.9
  },
  {
    "compound": "Nc1cccc(SCc2cc3ccccc3[nH]c2=O)c1",
    "u": "%",
    "endpoint result": 63
  },
  {
    "compound": "O=[N+]([O-])c1ccc(/C=C/c2nc3ccccc3n3c(=S)[nH]nc23)cc1",
    "u": "%",
    "endpoint result": 65.8
  },
  {
    "compound": "Cc1cccc(-c2nc(Nc3cccc(S(N)(=O)=O)c3)c3ccccc3n2)c1",
    "u": "%",
    "endpoint result": 39.8
  },
  {
    "compound": "Cc1ccc(S(=O)(=O)c2nc(S(=O)(=O)c3ccc(C)cc3)c(Cl)s2)cc1",
    "u": "%",
    "endpoint result": 18
  },
  {
    "compound": "O=C(/C=C/c1ccc(O)c(O)c1)NC1CCOC1O (centres undefined)",
    "u": "%",
    "endpoint result": 95.4
  },
  {
    "compound": "COc1ccc2cc([C@H](C)C(=O)N/N=C/c3ccc(Br)cc3)ccc2c1",
    "u": "%",
    "endpoint result": 106
  },
  {
    "compound": "COC1=C[C@]23CCC(=O)N2CCc2cc4c(cc2[C@@H]3[C@@H]1OC(=O)[C@H](C)O)OCO4",
    "u": "%",
    "endpoint result": 14.8
  },
  {
    "compound": "COc1cc(C2CC(c3cc(OC)c(OC)c(OC)c3)=NN2c2ccccc2)ccc1OCc1ccc(C)cc1 (centres undefined)",
    "u": "%",
    "endpoint result": 92.9
  },
  {
    "compound": "COc1ccc(-c2nc3ccc(C(=O)NN4C(=O)c5ccc([N+](=O)[O-])cc5C4=O)cc3[nH]2)cc1",
    "u": "%",
    "endpoint result": 90.5
  },
  {
    "compound": "Cn1cc(-c2cc(N)n3nc(-c4cn(C)c5ncc(Br)cc45)cc3n2)c2cc(Br)cnc21",
    "u": "%",
    "endpoint result": 1.06
  },
  {
    "compound": "N/C(=N\\c1nc2ccccc2s1)NC(=O)Nc1ccc(Cl)cc1Cl",
    "u": "%",
    "endpoint result": -2.3
  },
  {
    "compound": "Nc1cc2ccccc2c(=O)n1NC(=O)c1ccc(I)cc1",
    "u": "%",
    "endpoint result": 100
  },
  {
    "compound": "OCNc1ccc(-n2cnc3cc(-c4ccc(O)cc4)ccc32)cc1C(F)(F)F",
    "u": "%",
    "endpoint result": 45.6
  },
  {
    "compound": "COc1ccc2[nH]cc(-c3nnc(N)nc3-c3cn(C)c4ncc(Br)cc34)c2c1",
    "u": "%",
    "endpoint result": 72.9
  },
  {
    "compound": "Cc1nc(Nc2ccccn2)sc1C(=O)CC(SCC(=O)Nc1ccc(Cl)cc1)c1ccccc1F (centres undefined)",
    "u": "%",
    "endpoint result": 43.2
  },
  {
    "compound": "COc1ccc(/C=C/c2nc3ccccc3n3c(-c4ccc(Cl)cc4)nnc23)cc1",
    "u": "%",
    "endpoint result": 77.1
  },
  {
    "compound": "COc1cc(-c2nc3ccc(C)cc3[nH]2)ccc1OCc1nnc(-c2ccc(Br)cc2)o1",
    "u": "%",
    "endpoint result": 27.9
  },
  {
    "compound": "CC(=O)Oc1ccc(/C=C/C(=O)N[C@@H](Cc2ccccc2)C(O)C(=O)NCc2ccccc2)cc1OC(C)=O (some centres undefined)",
    "u": "%",
    "endpoint result": 76.9
  },
  {
    "compound": "COc1cc2nc(SCc3ccccc3)n(-c3ccc(Cl)cc3)c(=O)c2cc1OC",
    "u": "%",
    "endpoint result": 1.2
  },
  {
    "compound": "N#Cc1ccc(/C=N/NC(=O)c2[nH]c3ccc(Br)cc3c2-c2ccccc2)o1",
    "u": "%",
    "endpoint result": 13.1
  },
  {
    "compound": "CCOC(=O)c1ccc(Nc2nc(NN)nc(-c3ccc(F)cc3)c2C#N)cc1",
    "u": "%",
    "endpoint result": 103
  },
  {
    "compound": "Cc1cc(C)n(-c2ccc3nnc(-c4ccccc4)n3n2)n1",
    "u": "%",
    "endpoint result": 104
  },
  {
    "compound": "CN(C)CCOc1ccc(C(=O)C2[C@H](c3ccc(Cl)cc3)[C@@H](c3ccccc3)NC23C(=O)Nc2ccccc23)cc1 (some centres undefined)",
    "u": "%",
    "endpoint result": 41.9
  },
  {
    "compound": "Cc1ccc2c(N)c(C(=O)Nc3ccc(-c4ccccc4)cc3)sc2n1",
    "u": "%",
    "endpoint result": 68.5
  },
  {
    "compound": "N#Cc1c(-c2ccccc2Cl)cc(-c2ccc3ccccc3c2)[nH]c1=O",
    "u": "%",
    "endpoint result": 60.6
  },
  {
    "compound": "O=C(O)c1cccc(-c2ccc(/C=N/NC(=O)c3[nH]c4ccc(Br)cc4c3-c3ccccc3)s2)c1",
    "u": "%",
    "endpoint result": 56.9
  },
  {
    "compound": "NS(=O)(=O)c1ccc(CCNC(=O)CSc2ccc(-c3ccc(Br)cc3)nn2)cc1",
    "u": "%",
    "endpoint result": 74
  },
  {
    "compound": "CC(C)Sc1nc(NCCc2c[nH]c3ccccc23)c(C#N)c(-c2ccc(F)cc2)n1",
    "u": "%",
    "endpoint result": 15
  },
  {
    "compound": "COc1cc2c(c(OC)c1OC)C(=O)CC(c1cccc(NC(=O)c3cccc(NC(=O)[C@H](C)NC(=O)OC(C)(C)C)c3)c1)O2 (some centres undefined)",
    "u": "%",
    "endpoint result": 45.6
  },
  {
    "compound": "CC(=O)N1CCN(Cc2ccc3c(NNC(=O)c4cnccn4)nc4cc(F)ccc4n23)CC1",
    "u": "%",
    "endpoint result": 40.9
  },
  {
    "compound": "CSc1ccc(NC(=O)c2ccc3nn(/C(C#N)=C/c4ccccn4)nc3c2)cc1",
    "u": "%",
    "endpoint result": -73.7
  },
  {
    "compound": "N#Cc1cnn(C(=O)c2ccccc2Br)c1NC(=O)c1ccc(Br)cc1Cl",
    "u": "%",
    "endpoint result": 103
  },
  {
    "compound": "Cc1cc2nc3c4ccccc4n(CCCN(C)C)c3nc2cc1C",
    "u": "%",
    "endpoint result": -32
  }
]
